- Target Of Assay: 5-HT1B receptor (HTR1B) (Homo sapiens, UniProt P28222)
- Sequence (P28222 whole entry): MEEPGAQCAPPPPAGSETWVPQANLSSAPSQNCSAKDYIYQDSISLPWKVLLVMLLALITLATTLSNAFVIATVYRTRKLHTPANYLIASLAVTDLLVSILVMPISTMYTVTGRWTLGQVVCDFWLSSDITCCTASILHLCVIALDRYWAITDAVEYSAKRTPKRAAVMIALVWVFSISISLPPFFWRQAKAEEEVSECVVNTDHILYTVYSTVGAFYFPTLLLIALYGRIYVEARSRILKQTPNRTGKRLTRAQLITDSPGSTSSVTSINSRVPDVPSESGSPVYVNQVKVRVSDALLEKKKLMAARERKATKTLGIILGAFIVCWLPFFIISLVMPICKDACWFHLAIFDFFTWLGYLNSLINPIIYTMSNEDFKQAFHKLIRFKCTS
- Assay Name: GloSensor Gi/o-mediated cAMP inhibition assay in transfected HEK293T cells
- Details: EC50 (nmol/L), cAMP Gi agonist; human HTR1B

- Compound: "Nc1ccccc1C(=O)CC(N)C(=O)O (stereo not shown)"
  EC50: "~772 nM"
